Each recorded value in this set is attributed to PubChem BioAssay (NCI).

Give TGI for every item shown.
System: HL-60(TB) leukemia
Assay: NCI tumour cell line growth inhibition, 48 h

Worked cases, answers included:
Cc1ccc(-c2cc(C(=O)N3N=C(c4ccc(N)cc4)CC3c3ccc(Cl)cc3)c3ccccc3n2)cc1 (stereo not given)    > 100 µM
CC(=O)[CH-]C(C)=O.CC(=O)[CH-]C(C)=O.[CH2-]CCCCCCC.[CH2-]CCCCCCC.[Sn+4]    81.6 µM
O=C(O)c1cc(-c2ccc3c(O)ccc(O)c3c2)ccc1O    > 100 µM
CC(=O)c1cc2c(c(O)c1C)C(=O)C(=O)c1c(O)cccc1-2    0.271 µM
COc1ccc(-c2cc(-c3ccc(Nc4ccnc5cc(C(F)(F)F)ccc45)cc3)nc(N)c2C#N)cc1    > 100 µM
CN1CCc2c(sc3ncn(N)c(=N)c23)C1    > 100 µM

Your task in this section: give TGI for each listed record.
1. CCOc1cc2c[n+](C)c3c4cc(OC)c(OC)cc4ccc3c2cc1OC
2. CC(=O)OC/C=C(\C)CCC(Br)C(C)(C)Br (stereo not given)
3. COc1ccc(NC(=O)C2C(=O)N(c3ccc(OC)cc3)C(=O)/C2=N\N)cc1 (stereo not given)
4. CCCCCCc1nn2c(-c3ccncc3)nnc2s1

Response:
["> 100 µM", "> 10 µM", "> 100 µM", "> 10 µM"]

###

Tested on: 786-0 renal
Test: NCI tumour cell line growth inhibition, 48 h
Experimental Readout: TGI

Cc1cc(-c2no[n+]([O-])c2-c2cc(C)sc2S(C)(=O)=O)c(S(C)(=O)=O)s1    > 100 µM

Your task in this section: give TGI for each listed record.
1. CCCCc1ccc(Nc2nc(=S)c3ncn(COCCO)c3[nH]2)cc1
2. COC(=O)[C@]12CSCN1C(=O)C(C(C)=O)=NN2C(=O)[C@](OC)(c1ccccc1)C(F)(F)F
3. Cc1c(C(=O)O)n(-c2ccc(Cl)cc2)c2ncnc(N)c12

Response:
1. > 100 µM
2. > 100 µM
3. 56.2 µM

Your task in this section: give TGI for each listed record.
1. CCOC(=O)C(NC(=O)CC(C)C)(NC(C)C)C(F)(F)F (centres undefined)
2. CCC1=C(c2ccc(OC)cc2)CC[C@@]2(CCNC2=O)[C@@H]1C
3. COC(=O)[C@@H](C[C@H](Cc1ccccc1)NC(=O)c1csc([C@@H](C[C@H](C(C)C)N(C)C(=O)[C@@H](NC(=O)[C@H]2CCCCN2C)C(C)C)OC(C)=O)n1)NC(=O)OCc1ccccc1
4. COc1cc(/C=N/c2nncs2)ccc1O
5. CCCCCCNC(=O)Nc1ccc2cc3ccc(NC(=O)NCCCCCC)cc3nc2c1
6. COC(=O)[C@@H](Cc1ccccc1)NNC(=O)OC(C)(C)C
7. COc1ccc(P2(=S)Oc3ccc(C(c4ccccc4)(c4ccccc4)c4ccccc4)cc3O2)cc1 (centres undefined)
8. NC(=O)N/N=C\c1ccccc1OCc1cccc(COc2ccccc2/C=N\NC(N)=O)n1

Response:
["> 100 µM", "> 100 µM", "> 8.33 µM", "> 100 µM", "> 26.6 µM", "> 100 µM", "32.2 µM", "> 100 µM"]

Your task in this section: give TGI for each listed record.
1. Nc1cc2c(nc3c4ccccc4c(N)cc3[n+]2-c2cccc3ccccc23)c2ccccc12 (tested in a mixture with another compound)
2. CC(C)=CC1CCc2ccccc2N1S(=O)(=O)c1ccc(C)cc1 (centres undefined)
3. CC(C)[Si]1(C(C)C)OCC2OC(N3C(=O)NC(=O)C[C@@H]3C(O)c3ccccc3)CC2O[Si](C(C)C)(C(C)C)O1 (some centres undefined)
4. O[N+]1=CC=CCC1=S.On1ccccc1=S.[Zn]
5. COc1cccc(/C=N/Nc2ncnc3c2cnn3-c2cccc(OC)c2)c1
6. CC1=C(C(=O)CC(=O)C(=O)Nc2ccccc2C(F)(F)F)Sc2ccccc2N1
7. Cc1cc(C)c2cc(N)c(Cl)nc2n1
8. CC(=O)OCC1OC(n2c(-c3cccs3)c3c(c(C#N)c2=S)-c2ccccc2CC3)C(OC(C)=O)C(OC(C)=O)C1OC(C)=O (centres undefined)

Response:
1. 4.22 µM
2. 12.1 µM
3. 12.5 µM
4. 2.29 µM
5. > 25 µM
6. > 100 µM
7. > 100 µM
8. 58.5 µM

Your task in this section: give TGI for each listed record.
1. O=C(O)c1ccccc1CC1Cc2ccccc2C1
2. COC(=O)C1=C(O)[C@H](C(=O)OC)C2(O)[C@@H](C(=O)OC)[C@H]1C[C@@H](c1ccc(OC(=O)n3ccnc3)cc1)[C@@H]2C(=O)OC
3. COC(=O)c1cc2c3c(c1)Oc1cc(C(=O)OC)cc4c1C3c1c(cc(C(=O)OC)cc1O4)O2

Response:
> 100 µM
45.6 µM
23 µM

###

System: SR leukemia
Experiment: NCI tumour cell line growth inhibition, 48 h
Give TGI for every item shown.
Numbers only, in nM.

CC1(C)C(=O)/C(=C\c2ccccn2)C[C@]2(C)[C@H]3CC[C@@H]4[C@@H](C(=O)/C=C/c5ccccn5)CC[C@@]4(C)[C@]3(C)CC[C@@H]12    2110

Now for another entry.
Request: Give its TGI value. Item: COc1ccc2c(c1)C(=O)c1c-2n(CCCNCCO)c(=O)c2ccccc12
Response: 1800

###

Tested on: SR leukemia
Experiment: NCI tumour cell line growth inhibition, 48 h
Give TGI for every item shown.

CCCNC(=O)C(C)(Cl)C(=O)c1ccccc1O (stereo unspecified)    > 100 µM
NC(CSS(=O)(=O)c1ccccc1)C(=O)O (stereo unspecified)    > 10 µM
CN(C(=O)CC(=O)CP(=O)(c1ccccc1)c1ccccc1)c1ccccc1    > 100 µM
CCCCOC(=O)NC(Nc1ccc(S(N)(=O)=O)cc1)(C(F)(F)F)C(F)(F)F    > 100 µM
CC(C)(C)OC(=O)N1CCCC1=O    > 10 µM

Now for another entry.
Request: Give its TGI value. Item: S=C1NCN2CCN(CC2)CNC(=S)C(=S)NCN2CCN(CC2)CNC1=S
Response: > 100 µM

###

Give TGI for every item shown.
Test system: NCI-H23 lung
Experiment: NCI tumour cell line growth inhibition, 48 h
One number for each entry, in µM.

Your task in this section: give TGI for each listed record.
1. CC1CN1C1=CC(=O)c2c(c(CO)cn2C)C1=O (centres undefined)
2. O=C(C[Si](CC(=O)c1cccc(C(F)(F)F)c1)CC(=O)c1cccc(C(F)(F)F)c1)c1cccc(C(F)(F)F)c1
3. CC1(C)C(OC(=O)c2ccccc2)C[C@]23CCC[C@](C)(C[C@@H](O)C12)C3 (some centres undefined)

Response:
0.0265
15.6
34

###

Test system: TK-10 renal
Assay: NCI tumour cell line growth inhibition, 48 h
Give TGI for every item shown.

Worked cases, answers included:
Cc1cccc(C)c1NC(=O)C(=O)C(C#N)c1ccccc1Cl (stereo unspecified)    > 100 µM
CC(=O)Oc1ccc(O)c2c1CCCC2    49.6 µM
CN1CCc2c(sc3ncn(N)c(=N)c23)C1    > 100 µM
Nc1nc2c(nc(N)n2Cc2ccccc2)c(=O)[nH]1    > 100 µM
CCOC(=O)/C=C/C1=C(c2csc3ccccc23)c2ccccc2CC1    61.7 µM

Request: Give its TGI value. Item: C[C@@H](O)[C@H]1C(=O)N2C(C(=O)O)=C(SCCN=CN)C[C@H]12
Response: > 100 µM

###

Test system: DMS 273 small cell lung
Experiment: NCI tumour cell line growth inhibition, 48 h
Experimental Readout: TGI

Worked cases, answers included:
C1CN1c1nc(N2CC2)nc(N2CC2)n1    20.5 µM
Cc1cccc(C)c1NC(=O)C(=O)C(C#N)c1ccccc1Cl (stereo not drawn)    > 100 µM
FC(F)(F)C1(Cl)C(Cl)(c2ccccc2)C1(Cl)c1ccccc1 (stereo not drawn)    28.2 µM
O=C(/C(=C\c1ccccc1)CN1CCOCC1)c1ccc(Br)cc1    6.47 µM

Your task in this section: give TGI for each listed record.
1. O=Cc1cc2c(s1)C(=O)c1sccc1C2=O
2. O=C(CCN1CCCC1)CC(c1ccccc1)c1c(O)c2ccccc2oc1=O (stereo not drawn)
3. NC(=O)C1(c2ccccc2)Nc2ccccc2S1 (stereo not drawn)
4. Cc1ccc(O)c(N=Nc2ccc(S(=O)(=O)O)cc2)n1
5. O=C(Nc1ccn(CCOC(=O)c2ccccc2)c(=O)n1)c1ccccc1
6. O=C1C=CC(=O)c2ccc(=O)ccc21
7. CCOC(=O)C1C(=O)C(C(=O)OCC)C(c2ccccc2)N(C)C1c1ccccc1 (stereo not drawn)
8. COC(=O)[C@]12CSCN1C(=O)C(C(C)=O)=NN2C(=O)[C@](OC)(c1ccccc1)C(F)(F)F

Response:
1. 0.308 µM
2. > 100 µM
3. > 100 µM
4. > 100 µM
5. > 100 µM
6. 58.1 µM
7. > 100 µM
8. > 100 µM

Request: Give its TGI value. Item: CC(=O)Oc1ccc(O)c2c1CCCC2
Response: > 64.1 µM
